target: Transient receptor potential cation channel subfamily V member 1 (Rattus norvegicus); assay: Agonist activity at rat TRPV1 expressed in CHO cells assessed as induction of 45Ca2+ uptake at 30 uM relative to capsaicin; assay type: functional, cell-based
Activity calls are given as the source filed them. The calls are words filed in the database; no cut-off is given here.
parameter: Activity

{"molecule": "Cc1ccc(CC(COC(=O)C(C)(C)C)NC(=S)NCc2ccc(NS(C)(=O)=O)cc2)cc1C (centres undefined)", "assayResult": "19%"}
{"molecule": "CC(C)(C)C(=O)OCC(Cc1ccc(C(C)(C)C)cc1)NC(=S)NCc1ccc(NS(C)(=O)=O)c(F)c1 (centres undefined)", "assayResult": "inactive"}
{"molecule": "Cc1ccc(CC(COC(=O)C(C)(C)C)NC(=S)NCc2ccc(NS(C)(=O)=O)c(F)c2)cc1C (centres undefined)", "assayResult": "inactive"}
{"molecule": "CC(C)(C)C(=O)OCC(CCc1ccc(C(C)(C)C)cc1)NC(=S)NCc1ccc(NS(C)(=O)=O)c(F)c1 (centres undefined)", "assayResult": "inactive"}

###

target: Transient receptor potential cation channel subfamily V member 1 (Rattus norvegicus, UniProt O35433); assay: Displacement of [3H]RTX from rat TRPV1 expressed in CHO cells; type: cell-based
Sequence (O35433 whole entry): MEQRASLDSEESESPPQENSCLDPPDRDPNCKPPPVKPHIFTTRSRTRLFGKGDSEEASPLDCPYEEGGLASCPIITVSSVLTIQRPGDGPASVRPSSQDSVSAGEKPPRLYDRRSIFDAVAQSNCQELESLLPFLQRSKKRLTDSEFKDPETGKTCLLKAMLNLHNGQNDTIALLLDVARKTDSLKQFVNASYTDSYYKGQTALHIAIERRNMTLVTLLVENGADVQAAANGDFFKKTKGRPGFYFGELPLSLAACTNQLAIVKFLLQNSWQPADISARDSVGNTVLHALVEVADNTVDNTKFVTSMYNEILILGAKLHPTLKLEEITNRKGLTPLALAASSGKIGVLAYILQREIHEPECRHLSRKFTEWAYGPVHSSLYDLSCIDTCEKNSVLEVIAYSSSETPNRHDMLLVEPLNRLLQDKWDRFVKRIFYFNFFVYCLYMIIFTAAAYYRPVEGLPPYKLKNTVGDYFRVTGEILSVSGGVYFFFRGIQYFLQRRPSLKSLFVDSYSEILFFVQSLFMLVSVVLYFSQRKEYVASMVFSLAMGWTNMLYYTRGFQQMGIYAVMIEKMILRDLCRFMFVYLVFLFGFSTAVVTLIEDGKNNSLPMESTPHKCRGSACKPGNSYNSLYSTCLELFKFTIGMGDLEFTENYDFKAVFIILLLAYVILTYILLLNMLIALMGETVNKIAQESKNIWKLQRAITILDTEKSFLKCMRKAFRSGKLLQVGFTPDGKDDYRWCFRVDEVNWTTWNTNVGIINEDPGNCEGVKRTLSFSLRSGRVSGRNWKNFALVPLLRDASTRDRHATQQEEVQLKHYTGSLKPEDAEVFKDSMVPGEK
parameter: Ki (nM)

Some molecules with recorded Ki:
{"molecule": "Cc1ccc(CCC(COC(=O)C(C)(C)C)NC(=S)NCc2ccc(NS(C)(=O)=O)c(F)c2)cc1C (configuration not stated)", "measureUnit": "nM", "Ki": 120}
{"molecule": "Cc1ccc(CCC(COC(=O)C(C)(C)C)NC(=S)NCc2ccc(NS(C)(=O)=O)cc2)cc1C (configuration not stated)", "measureUnit": "nM", "Ki": 390}
{"molecule": "Cc1ccc(CC(COC(=O)C(C)(C)C)NC(=S)NCc2ccc(NS(C)(=O)=O)c(F)c2)cc1C (configuration not stated)", "measureUnit": "nM", "Ki": 233}
{"molecule": "CC(C)(C)C(=O)OCC(CNC(=S)NCc1ccc(NS(C)(=O)=O)cc1)c1ccc(C(C)(C)C)cc1 (configuration not stated)", "measureUnit": "nM", "Ki": 143}
{"molecule": "CC(C)(C)C(=O)OCC(CCc1ccc(C(C)(C)C)cc1)NC(=S)NCc1ccc(NS(C)(=O)=O)c(F)c1 (configuration not stated)", "measureUnit": "nM", "Ki": 190}

A. CC(C)(C)C(=O)OCC(CCc1ccc(C(C)(C)C)cc1)NC(=S)NCc1ccc(NS(C)(=O)=O)cc1 (configuration not stated)
B. CC(C)(C)C(=O)OCC(CNC(=S)NCc1ccc(NS(C)(=O)=O)c(F)c1)c1ccc(C(C)(C)C)cc1 (configuration not stated)
Asked: I would appreciate it if you could say which entry, A or B , has the lower Ki value. State the label of the item chosen.
Given back: B
(B: 69 nM, A: 366 nM)

A. CC(C)(C)C(=O)OCC(NC(=S)NCc1ccc(NS(C)(=O)=O)cc1)c1ccc(C(C)(C)C)cc1 (configuration not stated)
B. Cc1ccc(CC(COC(=O)C(C)(C)C)NC(=S)NCc2ccc(NS(C)(=O)=O)cc2)cc1C (configuration not stated)
Asked: I would appreciate it if you could say which entry, A or B , has the lower Ki value. State the label of the item chosen.
Given back: A

I. CC(C)(C)C(=O)OCC(Cc1ccc(C(C)(C)C)cc1)NC(=S)NCc1ccc(NS(C)(=O)=O)cc1 (configuration not stated)
II. CC(C)(C)C(=O)OCC(Cc1ccc(C(C)(C)C)cc1)NC(=S)NCc1ccc(NS(C)(=O)=O)c(F)c1 (configuration not stated)
III. CC(C)(C)C(=O)OCC(NC(=S)NCc1ccc(NS(C)(=O)=O)c(F)c1)c1ccc(C(C)(C)C)cc1 (configuration not stated)
Asked: Put the molecules in ascending order of Ki. Write the labels in rank order as requested.
Given back: II, III, I

###

target: Transient receptor potential cation channel subfamily V member 1 (Rattus norvegicus); experiment: Agonist activity at rat TRPV1 expressed in CHO cells assessed as induction of 45Ca2+ uptake at 30 uM relative to capsaicin; assay type: functional, cell-based
The source made the active and inactive calls. The rule behind the calls is not given here.
parameter: Activity

Some compounds with recorded Activity:
{"compound": "CC(C)(C)C(=O)OCC(Cc1ccc(C(C)(C)C)cc1)NC(=S)NCc1ccc(NS(C)(=O)=O)cc1 (stereo not given)", "Activity": "8%"}
{"compound": "CC(C)(C)C(=O)OCC(C/N=C(\\S)NCc1ccc(NS(C)(=O)=O)cc1)Cc1ccc(C(C)(C)C)cc1 (stereo not given)", "Activity": "40%"}
{"compound": "CC(C)(C)C(=O)OCC(CCc1ccc(C(C)(C)C)cc1)NC(=S)NCc1ccc(NS(C)(=O)=O)cc1 (stereo not given)", "Activity": "inactive"}
{"compound": "Cc1ccc(CC(CNC(=S)NCc2ccc(NS(C)(=O)=O)c(F)c2)COC(=O)C(C)(C)C)cc1C (stereo not given)", "Activity": "inactive"}

Asked: Quick one: Activity for Cc1ccc(CCC(COC(=O)C(C)(C)C)NC(=S)NCc2ccc(NS(C)(=O)=O)cc2)cc1C (stereo not given) ?
Given back: 5%

Ref: ChEMBL document CHEMBL2029279
